measure_name: IC50

Q: Please provide the recorded IC50 for CC(C)(C)NC(=O)[C@H]1CC[C@H]2[C@@H]3CC[C@H]4NC(=O)C=C[C@]4(C)[C@H]3CC[C@]12C [FINASTERIDE] , tested on 3-oxo-5-alpha-steroid 4-dehydrogenase 2 (Homo sapiens, UniProt P31213).
Result: 4.2 nM

---

assay_system: 3-oxo-5-alpha-steroid 4-dehydrogenase 2 (Homo sapiens, UniProt P31213)
Sequence (P31213 whole entry): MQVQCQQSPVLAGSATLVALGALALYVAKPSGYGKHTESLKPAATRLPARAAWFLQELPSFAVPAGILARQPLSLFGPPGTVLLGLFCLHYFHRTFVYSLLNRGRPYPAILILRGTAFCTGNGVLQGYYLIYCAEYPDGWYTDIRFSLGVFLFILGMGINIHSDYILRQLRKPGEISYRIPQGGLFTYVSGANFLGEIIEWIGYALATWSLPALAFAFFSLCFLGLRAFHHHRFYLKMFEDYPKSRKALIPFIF
pKi: −log10 of the molar value.
rule met means recorded pKi is 6 or above; rule not met means it is below 6.

Q: Given "C[C@]12CCC([PH](=O)O)=CC1=CCc1cc(Cl)ccc12" , state whether its pKi is at least 6.
Result: rule not met

Q: API: above_or_equal(metric=pKi, cutoff=6) for item "O=C(O)c1ccc2c(c1)CCc1cc(Cl)ccc1-2"
Result: rule not met

Q: Could you tell me if the measured pKi of CC(C)N(C(=O)[C@H]1CCC2C3CC[C@H]4C=C([N+](=O)[O-])CC[C@]4(C)C3CC[C@@]21C)C(C)C (some centres not stated) reaches 6 or more?
Result: rule met

Q: For this compound, is measured pKi 6 or higher? "CCN(CC)C(=O)[C@H]1CC[C@H]2[C@@H]3CC[C@H]4N(C)C(=O)CC[C@]4(C)[C@H]3CC[C@]12C"
Result: rule met

Q: State whether the measured pKi reaches 6, counting equality as reaching it, for CC(C)(C)NC(=O)[C@H]1CCC2C3CC=C4C=C([PH](=O)O)CC[C@]4(C)C3CC[C@@]21C (some centres not stated)
Result: rule met

Q: Could you verify whether the entry "CC1=C2NCc3cc(Cl)ccc3[C@@]2(C)CCC1=O" shows pKi of no less than 6?
Result: rule not met

Q: Determine whether this compound has pKi no lower than 6: "CC(C)(C)NC(=O)[C@H]1CC[C@H]2[C@@H]3CCc4cc(C(=O)O)ccc4[C@H]3CC[C@]12C"
Result: rule met
